Recorded values, source PubChem BioAssay (NCI).

test system: EKVX NSCLC; assay: NCI-60 one-dose screen, 48 h; details: 10 µM unless noted
About 83,000 compounds went through this panel and 20% of them were active in at least one assay; those are over-represented in the sample as a whole. The source made the active and inactive calls. Rule for the calls: active = growth percent below 10; inactive = the rest.
Outcome codes: active, inactive

INSERT INTO measurements (compound, class_assignment) VALUES
  ('C[C@]12CC[C@H]3[C@@H](C[C@@H]4N=C(c5ccc(O)cc5)S[C@@]45C[C@H](O)CC[C@]35C)[C@@H]1CC[C@@H]2O', 'inactive'),
  ('ClCCN(CCCl)C(c1ccccc1)c1ccc(Cl)cc1 (centres undefined)', 'inactive'),
  ('CCC(CO)NC1CCCCC1 (centres undefined)', 'inactive'),
  ('O=C1C=CC(=O)C2C1C1(Cl)C(Cl)=C(Cl)C2(Cl)C1(Cl)Cl (centres undefined)', 'inactive'),
  ('OC1(c2ccccc2F)c2ccccc2C2=NCCN21 (centres undefined)', 'inactive'),
  ('Cc1cccc(N(C)c2cccc3c2C(=O)[Se]C3)c1C', 'inactive'),
  ('CC[C@]12C=CCN3CC[C@@]4(c5ccc(OC)cc5N(C)[C@H]4[C@@](O)(C(=O)OC)[C@@H]1OC(=O)CCCN1CCN(CCCC(=O)O[C@@H]4[C@]5(CC)C=CCN6CC[C@@]7(c8ccc(OC)cc8N(C)[C@H]7[C@@]4(O)C(=O)OC)[C@@H]65)CC1)[C@@H]32', 'active'),
  ('CSc1ccccc1NP1(=O)OCC(C)([N+](=O)[O-])CO1 (centres undefined)', 'inactive'),
  ('Cc1cc(CCl)c(C)cc1CCl', 'inactive');
